Source listed as ChEMBL document CHEMBL4002605.

# Test system: Clostridium tetani
# Assay Procedure: Antibacterial activity against Clostridium tetani MTCC 449 by broth microdilution assay method
# Type: functional
Metric: log10(MIC) (log10 of the value in µg/mL)

{"Molecule": "O=C(NN1C(=O)CCSC1c1ccc(Br)cc1)c1cnc2c(C(F)(F)F)cccc2c1O (configuration not stated)", "log10(MIC)": 1.49}
{"Molecule": "O=C1CCSC(c2ccccc2)N1CCNc1ccnc2cc(Cl)ccc12 (configuration not stated)", "log10(MIC)": 2.40}
{"Molecule": "CC1(C)S[C@@H]2[C@H](NC(=O)[C@H](N)c3ccccc3)C(=O)N2[C@H]1C(=O)O [AMPICILLIN]", "log10(MIC)": 2.40}
{"Molecule": "O=C(NN1C(=O)CCSC1c1ccc(F)cc1)c1cnc2c(C(F)(F)F)cccc2c1O (configuration not stated)", "log10(MIC)": 1.19}
{"Molecule": "O=C1CCSC(c2ccc(F)cc2)N1CCCNc1ccnc2cc(Cl)ccc12 (configuration not stated)", "log10(MIC)": 2.00}
{"Molecule": "O=C(NN1C(=O)CCSC1c1ccc(Cl)cc1)c1cnc2c(C(F)(F)F)cccc2c1O (configuration not stated)", "log10(MIC)": 2.10}
{"Molecule": "COc1ccc(C2SCCC(=O)N2CCCNc2ccnc3cc(Cl)ccc23)cc1 (configuration not stated)", "log10(MIC)": 2.40}
{"Molecule": "O=C1CCSC(c2ccccc2)N1CCCCNc1ccnc2cc(Cl)ccc12 (configuration not stated)", "log10(MIC)": 2.70}
{"Molecule": "COc1cccc(C2SCCC(=O)N2CCCCNc2ccnc3cc(Cl)ccc23)c1 (configuration not stated)", "log10(MIC)": 2.40}
{"Molecule": "O=C(NN1C(=O)CCSC1c1cccc(F)c1)c1cnc2c(C(F)(F)F)cccc2c1O (configuration not stated)", "log10(MIC)": 2.10}
{"Molecule": "O=C1CCSC(c2ccc(F)cc2)N1CCCCNc1ccnc2cc(Cl)ccc12 (configuration not stated)", "log10(MIC)": 2.10}
{"Molecule": "O=C(NN1C(=O)CCSC1c1cccc(Cl)c1)c1cnc2c(C(F)(F)F)cccc2c1O (configuration not stated)", "log10(MIC)": 2.40}
{"Molecule": "O=C1CCSC(c2ccc(O)cc2)N1CCCNc1ccnc2cc(Cl)ccc12 (configuration not stated)", "log10(MIC)": 2.40}
{"Molecule": "COc1ccc(C2SCCC(=O)N2CCNc2ccnc3cc(Cl)ccc23)cc1 (configuration not stated)", "log10(MIC)": 2.10}
{"Molecule": "O=C1CCSC(c2ccc(F)cc2)N1CCNc1ccnc2cc(Cl)ccc12 (configuration not stated)", "log10(MIC)": 1.19}
{"Molecule": "O=C1CCSC(c2ccc(Cl)cc2)N1CCCNc1ccnc2cc(Cl)ccc12 (configuration not stated)", "log10(MIC)": 2.40}
{"Molecule": "O=C1CCSC(c2cccc(F)c2)N1CCCNc1ccnc2cc(Cl)ccc12 (configuration not stated)", "log10(MIC)": 2.40}
{"Molecule": "O=C1CCSC(c2cccc(Cl)c2)N1CCCNc1ccnc2cc(Cl)ccc12 (configuration not stated)", "log10(MIC)": 2.40}
{"Molecule": "Cc1ccc(C2SCCC(=O)N2NC(=O)c2cnc3c(C(F)(F)F)cccc3c2O)cc1 (configuration not stated)", "log10(MIC)": 2.40}
{"Molecule": "O=C1CCSC(c2cccc(F)c2)N1CCCCNc1ccnc2cc(Cl)ccc12 (configuration not stated)", "log10(MIC)": 2.10}
{"Molecule": "O=C1CCSC(c2cccc(Cl)c2)N1CCNc1ccnc2cc(Cl)ccc12 (configuration not stated)", "log10(MIC)": 2.40}
{"Molecule": "O=C(NN1C(=O)CCSC1c1ccc(O)cc1)c1cnc2c(C(F)(F)F)cccc2c1O (configuration not stated)", "log10(MIC)": 2.40}
